Tested on: CCRF-CEM
Experiment: Cell cycle arrest in human CCRF-CEM cells assessed as accumulation at S phase at 5 times IC50 after 24 hrs by propidium iodide staining-based flow cytometric analysis (reference value: 44.20%)
Type: functional
Please note: Activity exactly at 50% is rule not met. Only values below 50% get rule met.

COc1ncnc2c1c1ccsc1n2[C@@H]1O[C@H](CO)[C@@H](O)[C@H]1O    rule not met
COc1ncnc2c1c1sccc1n2[C@@H]1O[C@H](CO)[C@@H](O)[C@H]1O    rule not met
CSc1ncnc2c1c1ccsc1n2[C@@H]1O[C@H](CO)[C@@H](O)[C@H]1O    rule not met
Cc1ncnc2c1c1sccc1n2[C@@H]1O[C@H](CO)[C@@H](O)[C@H]1O    rule not met

Report whether reported Activity is lower than 50% (strictly) for CSc1ncnc2c1c1sccc1n2[C@@H]1O[C@H](CO)[C@@H](O)[C@H]1O
rule met

----------
Test system: CCRF-CEM
Test: Induction of apoptosis in human CCRF-CEM cells assessed as accumulation at subG1 phase at IC50 after 24 hrs by propidium iodide staining-based flow cytometric analysis (reference value: 2.32%)
Type: functional
MEASURED_QUANTITY: Activity (%)
Give bare numbers, in %.

Before answering, review these 5 worked examples.
COc1ncnc2c1c1sccc1n2[C@@H]1O[C@H](CO)[C@@H](O)[C@H]1O    11.17
Cc1ncnc2c1c1sccc1n2[C@@H]1O[C@H](CO)[C@@H](O)[C@H]1O    13.5
COc1ncnc2c1c1ccsc1n2[C@@H]1O[C@H](CO)[C@@H](O)[C@H]1O    2.55
CSc1ncnc2c1c1ccsc1n2[C@@H]1O[C@H](CO)[C@@H](O)[C@H]1O    2.79
CSc1ncnc2c1c1sccc1n2[C@@H]1O[C@H](CO)[C@@H](O)[C@H]1O    10.83

Would you kindly look at the next entry?
Given item Cc1ncnc2c1c1ccsc1n2[C@@H]1O[C@H](CO)[C@@H](O)[C@H]1O , the value recorded as its Activity is 2.35

----------
For each of the compounds below, state its pIC50.
Tested on: MRC5
Test: Cytotoxicity against human MRC5 cells assessed as cell growth inhibition after 72 hrs by MTS assay
Assay type: cell-based
Conditions: MRC5, 72 h
Give bare numbers, as −log10 of the molar value.

Before answering, review these 2 worked examples.
CSc1ncnc2c1c1ccsc1n2[C@@H]1O[C@H](CO)[C@@H](O)[C@H]1O    4.34
OC[C@H]1O[C@@H](n2c3ccsc3c3c(-c4cc5ccccc5o4)ncnc32)[C@H](O)[C@@H]1O    4.49

Record pIC50 for all entries; do not skip any.
1. OC[C@H]1O[C@@H](n2c3ncnc(-c4cc5ccccc5o4)c3c3ccsc32)[C@H](O)[C@@H]1O
2. Nc1ncnc2c1c1sccc1n2[C@@H]1O[C@H](CO)[C@@H](O)[C@H]1O
3. Cc1ncnc2c1c1sccc1n2[C@@H]1O[C@H](CO)[C@@H](O)[C@H]1O
4. CSc1ncnc2c1c1sccc1n2[C@@H]1O[C@H](CO)[C@@H](O)[C@H]1O

1: 4.43; 2: 4.52; 3: 5.78; 4: 5.05

Given item COc1ncnc2c1c1sccc1n2[C@@H]1O[C@H](CO)[C@@H](O)[C@H]1O , the value recorded as its pIC50 is 4.60

----------
Test system: Hepatitis C virus
Assay: Anti-HCV activity against Hepatitis C virus genotype 2a infected in human Huh7 replicon cells after 96 hrs by luciferase reporter gene assay
Assay type: functional, cell-based, Hepacivirus hominis
Conditions: Huh-7, 96 h
pEC50: −log10 of the molar value.
Assign rule met whenever pEC50 does not fall below 5; assign rule not met whenever it does.

Use the examples below as a reference point.
OC[C@H]1O[C@@H](n2c3ncnc(-c4cc5ccccc5o4)c3c3ccsc32)[C@H](O)[C@@H]1O    rule not met
COc1ncnc2c1c1ccsc1n2[C@@H]1O[C@H](CO)[C@@H](O)[C@H]1O    rule met
Cc1ncnc2c1c1sccc1n2[C@@H]1O[C@H](CO)[C@@H](O)[C@H]1O    rule met
COc1ncnc2c1c1sccc1n2[C@@H]1O[C@H](CO)[C@@H](O)[C@H]1O    rule not met
CSc1ncnc2c1c1ccsc1n2[C@@H]1O[C@H](CO)[C@@H](O)[C@H]1O    rule met

Record CSc1ncnc2c1c1sccc1n2[C@@H]1O[C@H](CO)[C@@H](O)[C@H]1O ; criterion: pEC50 no lower than 5. Met?
rule met

Record Nc1ncnc2c1c1ccsc1n2[C@@H]1O[C@H](CO)[C@@H](O)[C@H]1O ; criterion: pEC50 no lower than 5. Met?
rule not met

Record Cc1ncnc2c1c1ccsc1n2[C@@H]1O[C@H](CO)[C@@H](O)[C@H]1O ; criterion: pEC50 no lower than 5. Met?
rule met

----------
Test system: HCT-116
Experiment: Cytotoxicity against p53 deficient human HCT116 cells assessed as cell growth inhibition after 72 hrs by MTS assay
Type: functional, cell-based
Settings: HCT-116, 72 h
For each of the compounds below, state its pIC50.
One number for each entry, as −log10 of the molar value.

Nc1ncnc2c1c1ccsc1n2[C@@H]1O[C@H](CO)[C@@H](O)[C@H]1O    4.96

Would you kindly look at the next entry?
Given item CSc1ncnc2c1c1ccsc1n2[C@@H]1O[C@H](COP(=O)([O-])O)[C@@H](O)[C@H]1O.[Na+] , the value recorded as its pIC50 is 6.59

----------
Test: Cytotoxicity against human HuH7 cells
Assay type: cell-based, Huh-7
For each of the compounds below, state its CC50.

Before answering, review these 5 worked examples.
Cc1ncnc2c1c1ccsc1n2[C@@H]1O[C@H](CO)[C@@H](O)[C@H]1O    > 44.4 µM
Cc1ncnc2c1c1sccc1n2[C@@H]1O[C@H](CO)[C@@H](O)[C@H]1O    > 44.4 µM
CSc1ncnc2c1c1ccsc1n2[C@@H]1O[C@H](CO)[C@@H](O)[C@H]1O    > 44.4 µM
CSc1ncnc2c1c1sccc1n2[C@@H]1O[C@H](CO)[C@@H](O)[C@H]1O    > 44.4 µM
OC[C@H]1O[C@@H](n2c3ncnc(-c4cc5ccccc5o4)c3c3ccsc32)[C@H](O)[C@@H]1O    > 44.4 µM

Record CC50 for all entries; do not skip any.
1. COc1ncnc2c1c1sccc1n2[C@@H]1O[C@H](CO)[C@@H](O)[C@H]1O
2. OC[C@H]1O[C@@H](n2c3ccsc3c3c(-c4cc5ccccc5o4)ncnc32)[C@H](O)[C@@H]1O
3. Nc1ncnc2c1c1ccsc1n2[C@@H]1O[C@H](CO)[C@@H](O)[C@H]1O
4. Nc1ncnc2c1c1sccc1n2[C@@H]1O[C@H](CO)[C@@H](O)[C@H]1O
5. CC(C)C(=O)OC[C@H]1O[C@@H](n2ccc(N)nc2=O)[C@](C)(F)[C@@H]1OC(=O)C(C)C
6. COc1ncnc2c1c1ccsc1n2[C@@H]1O[C@H](CO)[C@@H](O)[C@H]1O

["13.9 to 29.2 µM", "19.6 to 26.6 µM", "> 44.4 µM", "16.4 to 17.2 µM", "> 44.4 µM", "> 44.4 µM"]

----------
Tested on: CCRF-CEM
Assay: Induction of apoptosis in human CCRF-CEM cells assessed as accumulation at subG1 phase at 5 times IC50 after 24 hrs by propidium iodide staining-based flow cytometric analysis (reference value: 2.32%)
Format: functional
For each of the molecules below, state its Activity.
Give bare numbers, in %.

Before answering, review these 5 worked examples.
Cc1ncnc2c1c1ccsc1n2[C@@H]1O[C@H](CO)[C@@H](O)[C@H]1O    3.83
CSc1ncnc2c1c1ccsc1n2[C@@H]1O[C@H](CO)[C@@H](O)[C@H]1O    3.53
CSc1ncnc2c1c1sccc1n2[C@@H]1O[C@H](CO)[C@@H](O)[C@H]1O    18.15
COc1ncnc2c1c1ccsc1n2[C@@H]1O[C@H](CO)[C@@H](O)[C@H]1O    11.22
COc1ncnc2c1c1sccc1n2[C@@H]1O[C@H](CO)[C@@H](O)[C@H]1O    17.46

Would you kindly look at the next entry?
Given item Cc1ncnc2c1c1sccc1n2[C@@H]1O[C@H](CO)[C@@H](O)[C@H]1O , the value recorded as its Activity is 16.72

----------
Test system: CCRF-CEM
Assay: Inhibition of DNA synthesis in human CCRF-CEM cells assessed as decrease in BrdU incorporation by measuring synthesized DNA levels at 5 times IC50 after 24 hrs by propidium iodide staining-based flow cytometric analysis (reference value: 52.66%)
Format: functional
MEASURED_QUANTITY: BrdU+ cells (%)
Give bare numbers, in %.

Record BrdU+ cells (%) for all entries; do not skip any.
1. Cc1ncnc2c1c1sccc1n2[C@@H]1O[C@H](CO)[C@@H](O)[C@H]1O
2. COc1ncnc2c1c1sccc1n2[C@@H]1O[C@H](CO)[C@@H](O)[C@H]1O
3. CSc1ncnc2c1c1ccsc1n2[C@@H]1O[C@H](CO)[C@@H](O)[C@H]1O
4. Cc1ncnc2c1c1ccsc1n2[C@@H]1O[C@H](CO)[C@@H](O)[C@H]1O
5. CSc1ncnc2c1c1sccc1n2[C@@H]1O[C@H](CO)[C@@H](O)[C@H]1O
6. COc1ncnc2c1c1ccsc1n2[C@@H]1O[C@H](CO)[C@@H](O)[C@H]1O

60.89
63.58
56.64
54.08
51.49
55.12
